Biological target: T1, Human CD3eg linker (human)
T1 construct: Single-chain construct; also called recombinant human CD3
T1 chain: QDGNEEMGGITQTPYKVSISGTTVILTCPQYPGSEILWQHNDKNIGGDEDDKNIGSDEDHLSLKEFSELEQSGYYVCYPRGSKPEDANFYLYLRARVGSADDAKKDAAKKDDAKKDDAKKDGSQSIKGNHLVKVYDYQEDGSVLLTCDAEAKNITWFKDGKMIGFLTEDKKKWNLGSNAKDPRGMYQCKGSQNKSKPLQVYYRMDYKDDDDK
Assay: SPR; fold vs parent H183/L072

{"binder": "H183/L072 VL P56W (antibody, name in Kabat numbering, V domains shown) VH: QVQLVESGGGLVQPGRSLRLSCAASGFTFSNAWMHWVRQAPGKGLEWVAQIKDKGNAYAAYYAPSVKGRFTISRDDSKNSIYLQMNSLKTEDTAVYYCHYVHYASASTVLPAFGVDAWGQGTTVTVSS VL: DIVMTQSPLSLPVTPGEPASISCQASQELVHMNRNTYLHWYQQKPGQAPRLLIYKVSNRFWGVPDRFSGSGSGTDFTLKISRVEAEDVGVYYCAQGTSVPFTFGQGTKLEIK", "fold change of affinity [fold]": 3}
{"binder": "H183/L072 VL Q24Y (antibody, name in Kabat numbering, V domains shown) VH: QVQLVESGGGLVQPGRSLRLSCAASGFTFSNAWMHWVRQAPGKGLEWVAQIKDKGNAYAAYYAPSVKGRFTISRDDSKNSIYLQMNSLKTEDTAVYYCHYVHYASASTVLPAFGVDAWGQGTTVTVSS VL: DIVMTQSPLSLPVTPGEPASISCYASQELVHMNRNTYLHWYQQKPGQAPRLLIYKVSNRFPGVPDRFSGSGSGTDFTLKISRVEAEDVGVYYCAQGTSVPFTFGQGTKLEIK", "fold change of affinity [fold]": 1}
{"binder": "H183/L072 VL A25H (antibody, name in Kabat numbering, V domains shown) VH: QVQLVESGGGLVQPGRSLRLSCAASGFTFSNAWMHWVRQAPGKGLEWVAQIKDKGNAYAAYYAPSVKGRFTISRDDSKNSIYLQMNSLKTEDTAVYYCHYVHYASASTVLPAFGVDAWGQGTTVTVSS VL: DIVMTQSPLSLPVTPGEPASISCQHSQELVHMNRNTYLHWYQQKPGQAPRLLIYKVSNRFPGVPDRFSGSGSGTDFTLKISRVEAEDVGVYYCAQGTSVPFTFGQGTKLEIK", "fold change of affinity [fold]": 0}
